- Test Target: T1, recombinant human TIMP-3 (human, UniProt P35625 24-211)
- T1 sequence (looked up): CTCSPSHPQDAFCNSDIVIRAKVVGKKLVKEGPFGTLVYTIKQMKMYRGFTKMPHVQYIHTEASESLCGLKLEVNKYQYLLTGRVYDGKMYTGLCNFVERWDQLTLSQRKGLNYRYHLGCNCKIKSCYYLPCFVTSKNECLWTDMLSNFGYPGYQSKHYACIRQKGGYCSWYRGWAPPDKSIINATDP
- Experiment: cell-based or functional assay
Readout: % of the inhibitory activity of TIMP-3 + peptide compared to TIMP-3 alone, 2000 nM (%)

Binder: CLPSQFKCTNTNRCIPGIFRCNGQDNCGDGEDERDCPEVT [LRP-1 peptide LA23]
Reported: 84
--
Binder: LRP-1 peptide LA15-17 (The end 2817 is inferred from the end of LA17) CPLNYFACPSGRCIPMSWTCDKEDDCEHGEDETHCNKFCSEAQFECQNHRCISKQWLCDGSDDCGDGSDEAAHCEGKTCGPSSFSCPGTHVCVPERWLCDGDKDCADGADESIAAGCLYNST
Reported: 91
--
Binder: CGPSSFSCPGTHVCVPERWLCDGDKDCADGADESIAAGCLYNST (Tags implied (Ni-NTA, anti-HA detection), not described) [LRP-1 peptide LA17]
Reported: 77
--
Binder: LRP-1 peptide LA4-5 (peptide) CPSDRFKCENNRCIPNRWLCDGDNDCGNSEDESNATCSARTCPPNQFSCASGRCIPISWTCDLDDDCGDRSDESASCAYPT
Reported: 104
